test system: DCAMKL3; construct: gene DCLK3; settings: concentration: 1 μM,replicates: in singlicate; n = 1;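 further: KINOMEscan kinase panel screen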
property: %Inh (%)
One number for each entry, in %.

compound	measurementUnit	%Inh
COc1cc(Nc2nccc(N3CCC(NC(=O)c4cccc(C#N)c4)C3)n2)cc(OC)c1OC (stereo not drawn) [GSK1379751]	%	0

Dear reader, for each entry below, please note its %Inh.
1. CC(C)S(=O)(=O)N1CCN(Cc2ccc3c(c2)nc(NC(=O)c2ccsc2)n3C[C@H](O)c2ccccc2)CC1 [GW635815]
2. Cn1ccc2ncnc(Oc3ccc(NC(=O)Nc4cccc(C(F)(F)F)c4)c(Cl)c3)c21
3. C[C@@H]1CNc2c(sc3ccc4nc(-c5ccc(O)cc5)ccc4c23)C(=O)N1
4. Cn1ccc2ncnc(Oc3ccc(NC(=O)Nc4cccc(C(F)(F)F)c4)c(F)c3)c21

Completion:
[9, 7, 54, 17]

Record Cl.Cl.NC[C@H](CC1CCCCC1)NC(=O)c1ccc(-c2ccnc3[nH]ccc23)s1 [GSK1581428] , field %Inh: 0

src = paper PMC5540273
